system: 772245-204-R-J1-PDC complex spheroid growth; assay: Anticancer human tumor 772245-204-R-J1-PDC patient-derived rhabdomyosarcoma cell line growth inhibition [Asc]; settings: second compound 0.0949 µM; first compound 0.01 µM; hits give low values;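 further: compound exposure lasted seven days; 100% = DMSO vehicle control viability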
readout label: viability, T/C

INSERT INTO results (compound, result) VALUES
  ('COc1c(OCCCN2CCOCC2)ccc2c3n(c(=NC(=O)c4cnc(N)nc4)nc12)CCN3 + CCN1C(C(=O)NC23CCC(C(=O)O)(CC2)CC3)C(c2cccc(Cl)c2F)C2(C(=O)Nc3cc(Cl)ccc32)C12CCCCC2', '97.6%'),
  ('CCN1CCN(Cc2ccc(Nc3ncc(F)c(-c4cc(F)c5nc(C)n(C(C)C)c5c4)n3)nc2)CC1 + CCN1C(C(=O)NC23CCC(C(=O)O)(CC2)CC3)C(c2cccc(Cl)c2F)C2(C(=O)Nc3cc(Cl)ccc32)C12CCCCC2', '110%'),
  ('CNC(C)C(=O)NC1CN(S(=O)(=O)c2cccc(S(=O)(=O)N3CCC4CCC(C(=O)NC(c5ccccc5)c5ccccc5)N4C(=O)C(NC(=O)C(C)NC)C3)c2)CCC2CCC(C(=O)NC(c3ccccc3)c3ccccc3)N2C1=O (stereo unspecified) + CCN1C(C(=O)NC23CCC(C(=O)O)(CC2)CC3)C(c2cccc(Cl)c2F)C2(C(=O)Nc3cc(Cl)ccc32)C12CCCCC2', '98.9%'),
  ('Cn1ncnc1[C@H]1c2n[nH]c(=O)c3cc(F)cc(c23)N[C@@H]1c1ccc(F)cc1 + CCN1C(C(=O)NC23CCC(C(=O)O)(CC2)CC3)C(c2cccc(Cl)c2F)C2(C(=O)Nc3cc(Cl)ccc32)C12CCCCC2', '88.2%'),
  ('O=C(c1ccc(F)c(F)c1Nc1ccc(I)cc1F)N1CC(O)([C@@H]2CCCCN2)C1 + CCN1C(C(=O)NC23CCC(C(=O)O)(CC2)CC3)C(c2cccc(Cl)c2F)C2(C(=O)Nc3cc(Cl)ccc32)C12CCCCC2', '91.5%'),
  ('NC1CCC(NC2CC2c2ccccc2)CC1 (stereo unspecified) + CCN1C(C(=O)NC23CCC(C(=O)O)(CC2)CC3)C(c2cccc(Cl)c2F)C2(C(=O)Nc3cc(Cl)ccc32)C12CCCCC2', '92.5%');
